test.summary: Cellular uptake in human NHBE assessed as compound retention at 3 to 20 uM incubated for 3 hrs followed by drug washout measured after 3 hrs by LC-MS/MS analysis relative to initial drug accumulation
Assay type: ADME
measure.name: Drug uptake (%)

molecule	display.unit	Drug uptake
CC[C@H]1OC(=O)[C@H](C)[C@@H](O[C@H]2C[C@@](C)(OC)[C@@H](O)[C@H](C)O2)[C@H](C)[C@@H](O[C@@H]2O[C@H](C)C[C@H](N(C)C)[C@H]2O)[C@](C)(O)C[C@@H](C)CN(C)[C@H](C)[C@@H](O)[C@]1(C)O [AZITHROMYCIN]	%	63
CCCCCCCC(=O)NCCCN(C)[C@H]1C[C@@H](C)O[C@@H](O[C@@H]2[C@@H](C)[C@H](O[C@H]3C[C@@](C)(OC)[C@@H](O)[C@H](C)O3)[C@@H](C)C(=O)O[C@H](CC)[C@@](C)(O)[C@H](O)[C@@H](C)N(C)C[C@H](C)C[C@@]2(C)O)[C@@H]1O	%	57
CC[C@H]1OC(=O)[C@H](C)[C@@H](O[C@H]2C[C@@](C)(OC)[C@@H](O)[C@H](C)O2)[C@H](C)[C@@H](O[C@@H]2O[C@H](C)C[C@H](N(C)C)[C@H]2O)[C@](C)(OC)C[C@@H](C)C(=O)[C@H](C)[C@@H](O)[C@]1(C)O [CLARITHROMYCIN]	%	0
CC[C@H]1OC(=O)[C@H](C)[C@@H](O)[C@H](C)[C@@H](O[C@@H]2O[C@H](C)C[C@H](N(C)C)[C@H]2O)[C@](C)(O)C[C@@H](C)CN(C)[C@H](C)[C@@H](O)[C@]1(C)O [DESCLADINOSYL AZITHROMYCIN]	%	74

I: CC[C@H]1OC(=O)[C@H](C)[C@@H](O[C@H]2C[C@@](C)(OC)[C@@H](O)[C@H](C)O2)[C@H](C)[C@@H](O[C@@H]2O[C@H](C)C[C@H](N(C)C)[C@H]2O)[C@](C)(OC)C[C@@H](C)C(=O)N[C@H](C)[C@@H](O)[C@]1(C)O
II: CCCCCCCC(=O)NCCCN1C[C@H](C)C[C@@](C)(O)[C@H](O[C@@H]2O[C@H](C)C[C@H](N(C)C)[C@H]2O)[C@@H](C)[C@H](O[C@H]2C[C@@](C)(OC)[C@@H](O)[C@H](C)O2)[C@@H](C)C(=O)O[C@H](CC)[C@@](C)(O)[C@H](O)[C@H]1C
III: CC[C@H]1OC(=O)[C@H](C)[C@@H](O)[C@H](C)[C@@H](O)[C@](C)(O)C[C@@H](C)CN(C)[C@H](C)[C@@H](O)[C@]1(C)O [AZITHROMYCIN AGLYCONE]
IV: CC[C@H]1OC(=O)[C@H](C)[C@@H](O[C@H]2C[C@@](C)(OC)[C@@H](OC(=O)CN(CC)CC)[C@H](C)O2)[C@H](C)[C@@H](O[C@@H]2O[C@H](C)C[C@H](N(C)C)[C@H]2O)[C@](C)(OC)C[C@@H](C)C(=O)N[C@H](C)[C@@H](O)[C@]1(C)O
Arrange the 4 entries by Drug uptake so the values rise. Reply format: the labels, ordered as requested.
III, I, IV, II
(III: 0%, I: 16%, IV: 33%, II: 71%)

====

test.summary: Cellular uptake in normal human lung fibroblasts assessed as compound retention at 3 to 20 uM incubated for 3 hrs followed by drug washout measured after 3 hrs by LC-MS/MS analysis relative to initial drug accumulation
Assay type: ADME
measure.name: Drug uptake (%)

chemical.string	Drug uptake / %
CC[C@H]1OC(=O)[C@H](C)[C@@H](O[C@H]2C[C@@](C)(OC)[C@@H](O)[C@H](C)O2)[C@H](C)[C@@H](O[C@@H]2O[C@H](C)C[C@H](N(C)C)[C@H]2O)[C@](C)(OC)C[C@@H](C)C(=O)[C@H](C)[C@@H](O)[C@]1(C)O	1
CCCCCCCC(=O)NCCCN(C)[C@H]1C[C@@H](C)O[C@@H](O[C@@H]2[C@@H](C)[C@H](O[C@H]3C[C@@](C)(OC)[C@@H](O)[C@H](C)O3)[C@@H](C)C(=O)O[C@H](CC)[C@@](C)(O)[C@H](O)[C@@H](C)N(C)C[C@H](C)C[C@@]2(C)O)[C@@H]1O	78

A: CCCCCCCC(=O)NCCCN1C[C@H](C)C[C@@](C)(O)[C@H](O[C@@H]2O[C@H](C)C[C@H](N(C)C)[C@H]2O)[C@@H](C)[C@H](O[C@H]2C[C@@](C)(OC)[C@@H](O)[C@H](C)O2)[C@@H](C)C(=O)O[C@H](CC)[C@@](C)(O)[C@H](O)[C@H]1C
B: CC[C@H]1OC(=O)[C@H](C)[C@@H](O)[C@H](C)[C@@H](O)[C@](C)(O)C[C@@H](C)CN(C)[C@H](C)[C@@H](O)[C@]1(C)O
Returns: the argument ( A or B ) having the larger Drug uptake. State the label of the item chosen.
A
(A: 84%, B: 0%)

====

test.summary: Cellular uptake in human BSMC at 3 to 20 uM after 3 hrs by LC-MS/MS analysis relative to azithromycin
Type: ADME
measure.name: Drug uptake (%)

A: CC[C@H]1OC(=O)[C@H](C)[C@@H](O)[C@H](C)[C@@H](O[C@@H]2O[C@H](C)C[C@H](N(C)C)[C@H]2O)[C@](C)(O)C[C@@H](C)CN(C)[C@H](C)[C@@H](O)[C@]1(C)O [DESCLADINOSYL AZITHROMYCIN]
B: CC[C@H]1OC(=O)[C@H](C)[C@@H](O[C@H]2C[C@@](C)(OC)[C@@H](O)[C@H](C)O2)[C@H](C)[C@@H](O[C@@H]2O[C@H](C)C[C@H](N(C)C)[C@H]2O)[C@](C)(OC)C[C@@H](C)C(=O)N[C@H](C)[C@@H](O)[C@]1(C)O
Returns: the argument ( A or B ) having the larger Drug uptake. State the label of the item chosen.
A
(A: 75%, B: 5%)

====

test.summary: Cellular uptake in human BSMC at 3 to 20 uM after 3 hrs by LC-MS/MS analysis relative to azithromycin
Assay type: ADME
measure.name: Drug uptake (%)

molecule	display.unit	Drug uptake
CC[C@H]1OC(=O)[C@H](C)[C@@H](O[C@H]2C[C@@](C)(OC)[C@@H](OC(=O)CN(CC)CC)[C@H](C)O2)[C@H](C)[C@@H](O[C@@H]2O[C@H](C)C[C@H](N(C)C)[C@H]2O)[C@](C)(OC)C[C@@H](C)C(=O)N[C@H](C)[C@@H](O)[C@]1(C)O	%	83

P: CC[C@H]1OC(=O)[C@H](C)[C@@H](O[C@H]2C[C@@](C)(OC)[C@@H](O)[C@H](C)O2)[C@H](C)[C@@H](O[C@@H]2O[C@H](C)C[C@H](N(C)C)[C@H]2O)[C@](C)(O)C[C@@H](C)CN(C)[C@H](C)[C@@H](O)[C@]1(C)O [AZITHROMYCIN]
Q: CC[C@H]1OC(=O)[C@H](C)[C@@H](O[C@H]2C[C@@](C)(OC)[C@@H](O)[C@H](C)O2)[C@H](C)[C@@H](O[C@@H]2O[C@H](C)C[C@H](N(C)C)[C@H]2O)[C@](C)(OC)C[C@@H](C)C(=O)[C@H](C)[C@@H](O)[C@]1(C)O [CLARITHROMYCIN]
R: CCCCCCCC(=O)NCCCN(C)[C@H]1C[C@@H](C)O[C@@H](O[C@@H]2[C@@H](C)[C@H](O[C@H]3C[C@@](C)(OC)[C@@H](O)[C@H](C)O3)[C@@H](C)C(=O)O[C@H](CC)[C@@](C)(O)[C@H](O)[C@@H](C)N(C)C[C@H](C)C[C@@]2(C)O)[C@@H]1O
S: CC[C@H]1OC(=O)[C@H](C)[C@@H](O)[C@H](C)[C@@H](O)[C@](C)(O)C[C@@H](C)CN(C)[C@H](C)[C@@H](O)[C@]1(C)O [AZITHROMYCIN AGLYCONE]
Rank descending by Drug uptake. Reply format: the labels, ordered as requested.
R, P, Q, S

====

System: NCI-H292
test.summary: Cellular uptake in human […] cells at 3 to 20 uM after 3 hrs by LC-MS/MS analysis relative to azithromycin
Type: ADME, cell-based
protocol.conditions: nci-h292, 3 h
measure.name: Drug uptake (%)

molecule	display.unit	Drug uptake
CC[C@H]1OC(=O)[C@H](C)[C@@H](O[C@H]2C[C@@](C)(OC)[C@@H](O)[C@H](C)O2)[C@H](C)[C@@H](O[C@@H]2O[C@H](C)C[C@H](N(C)C)[C@H]2O)[C@](C)(O)C[C@@H](C)CN(C)[C@H](C)[C@@H](O)[C@]1(C)O [AZITHROMYCIN]	%	100

1: CC[C@H]1OC(=O)[C@H](C)[C@@H](O[C@H]2C[C@@](C)(OC)[C@@H](OC(=O)CN(CC)CC)[C@H](C)O2)[C@H](C)[C@@H](O[C@@H]2O[C@H](C)C[C@H](N(C)C)[C@H]2O)[C@](C)(OC)C[C@@H](C)C(=O)N[C@H](C)[C@@H](O)[C@]1(C)O
2: CCCCCCCC(=O)NCCCN(C)[C@H]1C[C@@H](C)O[C@@H](O[C@@H]2[C@@H](C)[C@H](O[C@H]3C[C@@](C)(OC)[C@@H](O)[C@H](C)O3)[C@@H](C)C(=O)O[C@H](CC)[C@@](C)(O)[C@H](O)[C@@H](C)N(C)C[C@H](C)C[C@@]2(C)O)[C@@H]1O
3: CC[C@H]1OC(=O)[C@H](C)[C@@H](O)[C@H](C)[C@@H](O[C@@H]2O[C@H](C)C[C@H](N(C)C)[C@H]2O)[C@](C)(O)C[C@@H](C)CN(C)[C@H](C)[C@@H](O)[C@]1(C)O [DESCLADINOSYL AZITHROMYCIN]
Arrange the 3 entries by Drug uptake so the values rise. Reply format: the labels, ordered as requested.
3, 1, 2

I: CC[C@H]1OC(=O)[C@H](C)[C@@H](O[C@H]2C[C@@](C)(OC)[C@@H](O)[C@H](C)O2)[C@H](C)[C@@H](O[C@@H]2O[C@H](C)C[C@H](N(C)C)[C@H]2O)[C@](C)(OC)C[C@@H](C)C(=O)N[C@H](C)[C@@H](O)[C@]1(C)O
II: CC[C@H]1OC(=O)[C@H](C)[C@@H](O[C@H]2C[C@@](C)(OC)[C@@H](O)[C@H](C)O2)[C@H](C)[C@@H](O[C@@H]2O[C@H](C)C[C@H](N(C)C)[C@H]2O)[C@](C)(OC)C[C@@H](C)C(=O)[C@H](C)[C@@H](O)[C@]1(C)O [CLARITHROMYCIN]
Returns: the argument ( I or II ) having the larger Drug uptake. State the label of the item chosen.
II
(II: 35%, I: 10%)

1: CC[C@H]1OC(=O)[C@H](C)[C@@H](O)[C@H](C)[C@@H](O)[C@](C)(O)C[C@@H](C)CN(C)[C@H](C)[C@@H](O)[C@]1(C)O [AZITHROMYCIN AGLYCONE]
2: CCCCCCCC(=O)NCCCN1C[C@H](C)C[C@@](C)(O)[C@H](O[C@@H]2O[C@H](C)C[C@H](N(C)C)[C@H]2O)[C@@H](C)[C@H](O[C@H]2C[C@@](C)(OC)[C@@H](O)[C@H](C)O2)[C@@H](C)C(=O)O[C@H](CC)[C@@](C)(O)[C@H](O)[C@H]1C
Returns: the argument ( 1 or 2 ) having the larger Drug uptake. State the label of the item chosen.
2
(2: 207%, 1: 13%)
